Numbers sourced from PubChem BioAssay (NCI).

tested on: HS 578T breast; experiment: NCI-60 one-dose screen, 48 h (100 = growth as untreated, 0 = no growth, -100 = all killed); conditions: 10 µM unless noted
This is part of a sample that, as a whole, favours compounds with a hit. Of some 83,000 tested, about 20% had one in any assay.
result-type: growth (%)

molecule="COc1ccc(C2CC(c3cccc(Nc4ccncc4)c3)=NN2c2ccccc2)cc1 (stereo not given)" endpoint_result=68.5
molecule=CC(=O)c1c[nH]c2ccc(-c3ccnc(Nc4ccc(NC(=O)C5CCCC5)c(CN5CCOCC5)c4)n3)cc12 endpoint_result=-27.7
molecule="N#CSCC1CC(O)(c2ccccc2)C(c2ccccc2)C(c2ccc(F)cc2)O1 (stereo not given)" endpoint_result=-11.2
molecule=COc1ccc2c(c1)OC13Oc4cc(OC)ccc4C=C1CCCC3=C2 endpoint_result=45
molecule=COc1ccc(/C=C2\COc3ccc(-c4ccccc4)cc3C2=O)cc1O endpoint_result=-1.69
molecule=COc1ccc(C(=O)c2cc3c(N)c(C(=O)Nc4ccc(Cl)cc4)sc3nc2C)cc1 endpoint_result=60.3
molecule=Fc1ccccc1CSc1ncnc2nc[nH]c12 endpoint_result=111
molecule=N#Cc1cc(-c2nc3ccccc3s2)c(=O)n(NS(=O)(=O)c2ccc(Cl)cc2)c1N endpoint_result=99.7
molecule=NC(=O)C1(N2CCCCC2)CCN(CCCC(=O)c2ccc(F)cc2)CC1 endpoint_result=-2.41
molecule="O=C1CCCCCCCCC(O)C(O)CCCC(c2cccs2)O1 (stereo not given)" endpoint_result=103

---

test system: SF-268 CNS; experiment: NCI-60 one-dose screen, 48 h (100 = growth as untreated, 0 = no growth, -100 = all killed); settings: 10 µM unless noted
The panel holds about 83,000 compounds, 20% with a hit somewhere; the sample as a whole holds those more often. Activity calls are given as the source filed them. How the source made its calls: active means growth percent below 10; inactive means the rest.
result-type: growth

compound=COc1ccc(C(=O)/C=C/c2c(OC)cc(OC)cc2OC)c(OC)c1 endpoint_result="36.5% (inactive)"
compound=CCCCCCOc1ccc(/C=N/Nc2cc(C)nc3ccc(Br)cc23)cc1 endpoint_result="-1.78% (active)"
compound="COc1ccc(C2=NN(C(C)=O)C(c3cn(Cc4ccc(Cl)cc4)c4ccccc34)C2)cc1 (stereo not given)" endpoint_result="79.9% (inactive)"
compound=CN1CCN(Cc2ccc(NC(=O)c3cncc(C#Cc4cnccc4C(F)(F)F)c3)cc2C(F)(F)F)CC1 endpoint_result="92.1% (inactive)"
compound=COc1ccc(-c2nc(SCCC(C)C)nc(N/N=C(/C)c3ccc(C)cc3)c2C#N)cc1 endpoint_result="93.2% (inactive)"
compound=CCCN=C(N)c1ccc(NC(=O)c2ccc(C(=O)Nc3ccc(C(N)=NCCC)cc3)cc2)cc1 endpoint_result="95.8% (inactive)"
compound=CN1CCN(C(=O)OCc2nc3c(N4CCOCC4)nc(-c4ccccc4)nc3n2C)CC1 endpoint_result="-50.2% (active)"
compound=Cc1ccc2nc3c(cc2c1)CSc1nnc(-c2ccc[nH]c2=S)n1N3 endpoint_result="89.5% (inactive)"
compound="CCn1cc(C2NC(=O)c3ccccc3N2)c2cccc(C)c21 (stereo not given)" endpoint_result="43.2% (inactive)"
compound=CCNC(=S)NNC(=O)c1cc2ccc1CCc1ccc(cc1)CC2 endpoint_result="95.4% (inactive)"

---

Tested on: SR leukemia
Assay: NCI-60 one-dose screen, 48 h (100 = growth as untreated, 0 = no growth, -100 = all killed)
Details: 10 µM unless noted
Procedure: Growth inhibition of the SR human tumor cell line is measured as a screen for anti-cancer activity. Cells are grown in 96 well plates and exposed to the test compound for 48 hours. Compounds are tested at a single concentration, which is 10^-5 M for most compounds. The reported endpoint is percent growth (GI% or GIPRCNT), where numbers from 0 - 100% represent growth inhibition, and numbers from -100% - 0 represent cell death. For example, a value of 40 represents 60% growth inhibition. […]
Compounds without any hit were thinned out: in the full panel of roughly 83,000, 20% have a hit.
Each record here notes measured growth.
result-type: growth (%)

molecule=COc1cc(-c2cc(=O)oc3cc(O)ccc23)cc(OC)c1OC result_type=growth display_unit=% endpoint_result=97.6
molecule="Cc1ccc(C2C3CC4CCCCC4N3[C@@]3(C(=O)Nc4cc(Cl)ccc43)C2C(=O)c2nc3ccccc3[nH]2)cc1 (stereo partly drawn)" result_type=growth display_unit=% endpoint_result=21.2
molecule=O=c1[nH]nc(-c2ccc(Cl)cc2)cc1Cc1cccc([N+](=O)[O-])c1 result_type=growth display_unit=% endpoint_result=-44.9
molecule=COc1ccc(/C=C\c2nc3ccccc3s2)cc1OP(=O)(O)O result_type=growth display_unit=% endpoint_result=16.7
molecule=COc1cc(CNC(=O)CCCCC[P+](c2ccccc2)(c2ccccc2)c2ccccc2)c(OC)c2c1OCO2 result_type=growth display_unit=% endpoint_result=22.9
molecule=C[C@@H]1CN(Cc2ccc(/C=C/c3n[nH]c4ccc5nc(-c6cn[nH]c6C(F)(F)F)c6c(c5c34)CCCC6)cc2)C[C@H](C)O1 result_type=growth display_unit=% endpoint_result=7.98
molecule=O=C1NC(=O)C(=Cc2cn(Cc3ccccn3)c3ccccc23)C(=O)N1 result_type=growth display_unit=% endpoint_result=93
molecule=NC(=O)C1(N2CCCCC2)CCN(CCCC(=O)c2ccc(F)cc2)CC1 result_type=growth display_unit=% endpoint_result=11.4
molecule=COc1ccc2c(c1)c(CC(=O)NCCOCCOCC(=O)Nc1ccc(OC)c(C(N)=O)c1O)c(C)n2C(=O)c1ccc(Cl)cc1 result_type=growth display_unit=% endpoint_result=90.2
molecule=O=C(CN1CCOCC1)Nc1ccc2ncnc(Nc3ccc(Oc4cccc(C(F)(F)F)c4)c(Cl)c3)c2c1 result_type=growth display_unit=% endpoint_result=61.5
molecule=COc1ccc(C(=O)/C=C/c2cn(Cc3ccc(Cl)cc3)c3ccccc23)cc1 result_type=growth display_unit=% endpoint_result=20.1
molecule="COc1ccc(C(O)c2cc3c(N)c(C(=O)Nc4ccc(Br)cc4)sc3nc2C)cc1 (stereo not drawn)" result_type=growth display_unit=% endpoint_result=-8
molecule=CCCCOc1ccc(/C=N/Nc2cc(C)nc3ccc(Cl)cc23)cc1 result_type=growth display_unit=% endpoint_result=-20.8
molecule="C/C(=C(/c1ccccc1)c1ccc(OCC(O)CN2CCOCC2)cc1)c1ccccc1 (stereo not drawn)" result_type=growth display_unit=% endpoint_result=47.2
molecule="CCCCCCCCCCCCC1CCC/C=C\\CCC(=O)O1 (stereo not drawn)" result_type=growth display_unit=% endpoint_result=71.4
molecule=COc1cc(COC(=O)CCCCC[P+](c2ccccc2)(c2ccccc2)c2ccccc2)c(OC)c2c1OCO2 result_type=growth display_unit=% endpoint_result=0.217
molecule=CC(C)[N+](C)(CCOC(COc1ccccc1)COc1ccccc1)C(C)C result_type=growth display_unit=% endpoint_result=91.5
molecule=O=C(N/N=C/c1cccnc1)c1ccccc1Nc1cccc(C(F)(F)F)c1 result_type=growth display_unit=% endpoint_result=-15.3
molecule=Fc1ccc2nc3c(cc2c1)CSc1nnc(-c2ccc[nH]c2=S)n1N3 result_type=growth display_unit=% endpoint_result=90.4
molecule=O=C(Nc1nc2ccc(C(=O)N3CCN(c4ccc(Cl)c(Cl)c4)CC3)cc2s1)c1ccc(NCCc2ccccc2)c([N+](=O)[O-])c1 result_type=growth display_unit=% endpoint_result=98.4
molecule=COc1ccc(/C=C/C(=O)c2ccc(OC)c(OC)c2)cc1O result_type=growth display_unit=% endpoint_result=18.6
molecule="COc1ccc2c(/C=C3/C(=O)NC(=S)NC3C)cc(=O)oc2c1 (stereo not drawn)" result_type=growth display_unit=% endpoint_result=96.6
molecule="Fc1ccc(C2CC(c3cccc(Nc4ccncc4)c3)=NN2c2ccc(Cl)cc2)cc1 (stereo not drawn)" result_type=growth display_unit=% endpoint_result=4.4
molecule=c1ccc(CCSc2ncnc3nc[nH]c23)cc1 result_type=growth display_unit=% endpoint_result=52.8
molecule=COC(=O)Nc1nc2ccc(C(=O)c3cccc(I)c3)cc2[nH]1 result_type=growth display_unit=% endpoint_result=-3.68
molecule="COc1ccc2c(c1)OC1=C(C(=O)OC1)C2c1cc(OC)c(OC)c(OC)c1 (stereo not drawn)" result_type=growth display_unit=% endpoint_result=15.3
molecule="CC(=O)OCC(=O)C1(O)C(C)CC2C3C=C(C)C4=Cc5c(cnn5-c5ccccc5)CC4(C)C3C(O)CC21C (stereo not drawn)" result_type=growth display_unit=% endpoint_result=2.76
molecule=Cc1cc(C(=O)Nc2ncnc3nc[nH]c23)no1 result_type=growth display_unit=% endpoint_result=89.6
molecule=COc1ccccc1Nc1cc(O)c2c(=O)cc(-c3ccccc3)oc2c1 result_type=growth display_unit=% endpoint_result=5.75
molecule=Cc1cc(Nc2cccc(C(F)(F)F)c2)n2c(nc3ccccc32)c1C#N result_type=growth display_unit=% endpoint_result=31.6
molecule=COc1cc2c(cc1[N+](=O)[O-])-c1ccc([N+](=O)[O-])cc1/C2=N\O result_type=growth display_unit=% endpoint_result=62
molecule="COC(=O)C(c1ccccc1)C(CC(=O)c1ccccc1)c1ccccc1 (stereo not drawn)" result_type=growth display_unit=% endpoint_result=87.5
molecule=CC[C@H](CC[C@@H](C)[C@H]1CC[C@H]2[C@@H]3CC=C4C[C@@H](OCCc5nn[nH]n5)CC[C@]4(C)[C@H]3CC[C@]12C)C(C)C result_type=growth display_unit=% endpoint_result=105
molecule="CC(Oc1ccc(C(=O)NS(=O)(=O)C(C)(C)C)cc1C(F)(F)F)c1ccc(Oc2ccccc2)cn1 (stereo not drawn)" result_type=growth display_unit=% endpoint_result=25.9
molecule=C[C@H]1[C@H](C)CC[C@]2(CO)CC[C@]3(C)C(=CC[C@@H]4[C@@]5(C)Cc6c([nH]c7ccccc67)C(C)(C)[C@@H]5CC[C@]43C)[C@H]12 result_type=growth display_unit=% endpoint_result=75.8
molecule="Clc1ccc(C2CC(c3cccc(Nc4ccncc4)c3)=NN2c2ccccc2)cc1 (stereo not drawn)" result_type=growth display_unit=% endpoint_result=2.19
molecule=CCc1c(Nc2ccc(C)cc2)nc(N)[nH]c1=O result_type=growth display_unit=% endpoint_result=87.9
molecule="CC1NC(=S)NC(=O)/C1=C/c1cc(=O)oc2c1ccc1ccccc12 (stereo not drawn)" result_type=growth display_unit=% endpoint_result=94
